We begin with a simple list: items and their reported MCV.
# assay.procedure: Hematology assays after subcutaneous administration in CD-1 mice (Example 6)
# Assay type: in vivo
# measurement.context: 50 mg/kg subcutaneous twice weekly for 7 weeks
Strand notation (5' to 3'): a small letter for the sugar, then the base; units joined by * are phosphorothioate-linked, units joined directly phosphodiester-linked; [ ] holds rarer units or linkages, { } end groups; capitals alone tell only the bases. k = constrained ethyl (cEt); [5mC] = 5-methylcytosine; d = 2'-deoxy (DNA)
Write down the numeric answer in fL and omit the unit.

Consider the reported MCV for these substances:
- substance: "799144 (antisense kT*kT*kG*dG*dG*dT*dT*dA*dT*dG*dA*d[5mC]*dG*kG*kA*k[5mC]) [compound 799144]"
  property.label: "MCV"
  observed.result: 45.8
- substance: "830121 (AGAATCAAGCCCTGGC; 3-10-3 cEt gapmer, further chemistry not given here) [compound 830121]"
  property.label: "MCV"
  observed.result: 45.5
- substance: "790615 (CCAATGAGAATGCTTC; 3-10-3 cEt gapmer, further chemistry not given here) [compound 790615]"
  property.label: "MCV"
  observed.result: 44.8

Item 798781 (CGTAAGATTCACAGCA; 3-10-3 cEt gapmer, further chemistry not given here) [compound 798781] has what recorded MCV?
45.8

Item 830025 (antisense TTTGTAAATCGAAAGC; 3-10-3 cEt gapmer, further chemistry not given here) [compound 830025] has what recorded MCV?
48.8

Item 830027 (antisense kA*kA*k[5mC]*d[5mC]*dA*dT*dT*dT*dA*dT*d[5mC]*dT*dG*kG*kT*kG) [compound 830027] has what recorded MCV?
46.3

Item 829994 (GGAGGCAGGGCCGCGA; 3-10-3 cEt gapmer, further chemistry not given here) [compound 829994] has what recorded MCV?
47.3

* * *

We begin with a simple list: items and their reported % Inhibition.
# Test system: human SMAD7 mRNA
# assay.procedure: Antisense inhibition of human SMAD7 mRNA expression in Hep3B cells by 3-10-3 cEt gapmers, 10,000 nM, electroporation (Example 2)
# Format: cell-based
# measurement.context: SMAD7 mRNA, Hep3B cells, 10,000 nM antisense oligonucleotide, electroporation, approximately 24 hours, primer probe set RTS5062, relative to untreated control cells
Strand notation (5' to 3'): a small letter for the sugar, then the base; units joined by * are phosphorothioate-linked, units joined directly phosphodiester-linked; [ ] holds rarer units or linkages, { } end groups; capitals alone tell only the bases. k = constrained ethyl (cEt); [5mC] = 5-methylcytosine; d = 2'-deoxy (DNA)
Write down the numeric answer in % and omit the unit.

Consider the reported % Inhibition for these substances:
- substance: "829756 (antisense k[5mC]*k[5mC]*kG*dT*d[5mC]*dG*d[5mC]*d[5mC]*d[5mC]*d[5mC]*dT*dT*d[5mC]*kT*k[5mC]*k[5mC]) [compound 829756]"
  property.label: "% Inhibition"
  observed.result: 42
- substance: "790486 (kT*kG*k[5mC]*d[5mC]*dT*dG*dA*dG*dA*dT*d[5mC]*d[5mC]*dG*kG*k[5mC]*k[5mC]; antisense) [compound 790486]"
  property.label: "% Inhibition"
  observed.result: 23
- substance: "790463 (kA*kT*kG*dA*dA*dG*dA*dA*dG*dT*d[5mC]*dG*dG*kG*k[5mC]*kG; antisense) [compound 790463]"
  property.label: "% Inhibition"
  observed.result: 53
- substance: "790618 (kA*kG*k[5mC]*dA*d[5mC]*dT*dA*d[5mC]*dA*dA*dT*dG*d[5mC]*kT*kA*kA; antisense) [compound 790618]"
  property.label: "% Inhibition"
  observed.result: 24
- substance: "772552 (antisense kG*k[5mC]*kG*d[5mC]*d[5mC]*dT*dT*d[5mC]*dA*dG*dA*dT*d[5mC]*k[5mC]*kG*k[5mC]) [compound 772552]"
  property.label: "% Inhibition"
  observed.result: 34

Item 790741 (kA*kT*kT*dA*dA*dG*d[5mC]*d[5mC]*d[5mC]*dG*d[5mC]*dT*d[5mC]*kT*k[5mC]*kA; antisense) [compound 790741] has what recorded % Inhibition?
30

Item 829729 (antisense kA*kG*kG*d[5mC]*dG*d[5mC]*dA*dG*dG*d[5mC]*dG*dA*d[5mC]*kA*kG*k[5mC]) [compound 829729] has what recorded % Inhibition?
66

Item 829763 (antisense kG*kT*kT*dT*d[5mC]*dT*dT*dG*dA*dG*d[5mC]*dA*d[5mC]*k[5mC]*kG*kA) [compound 829763] has what recorded % Inhibition?
65

Item 800795 (antisense kT*kA*kA*d[5mC]*dT*dG*d[5mC]*dT*dG*d[5mC]*dG*dG*dT*kT*kG*kT) [compound 800795] has what recorded % Inhibition?
12

Item 829747 (antisense kT*k[5mC]*kG*d[5mC]*d[5mC]*dG*d[5mC]*d[5mC]*dG*dG*dG*d[5mC]*dG*k[5mC]*kA*k[5mC]) [compound 829747] has what recorded % Inhibition?
16

Item 800787 (antisense k[5mC]*kA*kG*dT*dA*dG*dA*dG*d[5mC]*d[5mC]*dT*d[5mC]*d[5mC]*k[5mC]*k[5mC]*kA) [compound 800787] has what recorded % Inhibition?
38

Item 772734 (kA*kG*kG*d[5mC]*dA*dG*dG*dG*d[5mC]*d[5mC]*dG*d[5mC]*dG*kA*kG*kG; antisense) [compound 772734] has what recorded % Inhibition?
16

* * *

# System: human SMAD7 mRNA
# assay.procedure: Antisense inhibition of human SMAD7 mRNA expression in Hep3B cells by 3-10-3 cEt gapmers, 10,000 nM, electroporation (Example 2)
# Format: cell-based
# measurement.context: SMAD7 mRNA, Hep3B cells, 10,000 nM antisense oligonucleotide, electroporation, approximately 24 hours, primer probe set RTS5062, relative to untreated control cells
Strand notation (5' to 3'): a small letter for the sugar, then the base; units joined by * are phosphorothioate-linked, units joined directly phosphodiester-linked; [ ] holds rarer units or linkages, { } end groups; capitals alone tell only the bases. k = constrained ethyl (cEt); [5mC] = 5-methylcytosine; d = 2'-deoxy (DNA)
We begin with a simple list: items and their reported % Inhibition.
Write down the value, and be sure its unit follows.

- substance: "790693 (k[5mC]*kA*kA*dA*dG*dT*dA*dT*dA*d[5mC]*d[5mC]*dT*dG*kT*kT*k[5mC]; antisense) [compound 790693]"
  property.label: "% Inhibition"
  observed.result: "45%"
- substance: "800858 (antisense kA*kG*k[5mC]*d[5mC]*d[5mC]*dA*dA*d[5mC]*dT*dG*dT*dT*dT*kG*kT*k[5mC]) [compound 800858]"
  property.label: "% Inhibition"
  observed.result: "40%"
- substance: "772687 (kA*k[5mC]*k[5mC]*dT*dT*dT*dG*dT*dA*dG*dT*dT*dA*kG*kA*kA; antisense) [compound 772687]"
  property.label: "% Inhibition"
  observed.result: "46%"
- substance: "799143 (antisense kT*kG*kG*dG*dT*dT*dA*dT*dG*dA*d[5mC]*dG*dG*kA*k[5mC]*k[5mC]) [compound 799143]"
  property.label: "% Inhibition"
  observed.result: "61%"
- substance: "829784 (antisense kA*kG*kA*dT*d[5mC]*d[5mC]*dG*dG*d[5mC]*d[5mC]*dA*d[5mC]*d[5mC]*kT*kG*kA) [compound 829784]"
  property.label: "% Inhibition"
  observed.result: "32%"

Let us examine a further case.
Reported % Inhibition for human SMAD7 mRNA, given 790855 (kA*k[5mC]*k[5mC]*dT*dT*dT*dT*d[5mC]*d[5mC]*dG*dG*dT*dA*kT*kT*kT; antisense) [compound 790855] ?
40%

* * *

# Tested on: human SMAD7 mRNA
# assay.procedure: Antisense inhibition of human SMAD7 mRNA expression in Hep3B cells by 5-10-5 MOE gapmers, single concentration, electroporation, RT-PCR (Example 1, Study 1 and 2)
# Format: cell-based
# measurement.context: electroporation, 15,000 nM antisense oligonucleotide (Study 2), 5-10-5 MOE gapmers targeting SEQ ID NO: 1 and 2
# Experimental: Antisense oligonucleotides were designed to target human SMAD7 mRNA and were tested for their effects on SMAD7 mRNA expression in vitro. […] After a treatment period of approximately 24 hours, RNA was isolated from the cells and SMAD7 mRNA levels were measured by quantitative real-time PCR. […] SMAD7 mRNA levels were adjusted according to total RNA content, as measured by RIBOGREEN®. […]
Strand notation (5' to 3'): a small letter for the sugar, then the base; units joined by * are phosphorothioate-linked, units joined directly phosphodiester-linked; [ ] holds rarer units or linkages, { } end groups; capitals alone tell only the bases. e = 2'-O-(2-methoxyethyl) (MOE); [5mC] = 5-methylcytosine; d = 2'-deoxy (DNA)
Output 1 (yes) for % inhibition of SMAD7 mRNA expression not less than 30%; output 0 (no) otherwise.

- substance: "771537 (antisense e[5mC]*eA*eA*eA*eG*dA*dG*d[5mC]*dG*dA*dA*dA*d[5mC]*dA*dA*eA*eA*e[5mC]*eA*eG) [compound 771537]"
  classification: "0 (no)"

Given 771769 (antisense eG*eG*e[5mC]*eT*eG*dG*dG*dA*dA*dT*d[5mC]*dA*dG*dA*dA*e[5mC]*eT*eT*eG*eG) [compound 771769] , state whether its % inhibition of SMAD7 mRNA expression is at least 30%.
1 (yes)

Given 771404 (antisense e[5mC]*eG*eA*eA*e[5mC]*dA*dT*dG*dA*d[5mC]*d[5mC]*dT*d[5mC]*d[5mC]*dG*e[5mC]*eA*e[5mC]*eA*e[5mC]) [compound 771404] , state whether its % inhibition of SMAD7 mRNA expression is at least 30%.
1 (yes)

Given 771349 (antisense eA*e[5mC]*eT*e[5mC]*e[5mC]*dA*dA*dA*dG*dG*dT*dG*d[5mC]*dG*d[5mC]*eG*eG*e[5mC]*e[5mC]*eA) [compound 771349] , state whether its % inhibition of SMAD7 mRNA expression is at least 30%.
0 (no)

Given 771498 (antisense e[5mC]*eT*eG*eT*eT*dG*dA*dA*dG*dA*dT*dG*dA*d[5mC]*d[5mC]*eT*e[5mC]*eT*eA*eG) [compound 771498] , state whether its % inhibition of SMAD7 mRNA expression is at least 30%.
1 (yes)

Given 771409 (antisense e[5mC]*e[5mC]*e[5mC]*e[5mC]*eT*dG*d[5mC]*dG*d[5mC]*d[5mC]*d[5mC]*dT*d[5mC]*d[5mC]*dT*e[5mC]*e[5mC]*eT*e[5mC]*eG) [compound 771409] , state whether its % inhibition of SMAD7 mRNA expression is at least 30%.
0 (no)

Given 771568 (antisense e[5mC]*eT*eG*e[5mC]*eA*dA*dA*d[5mC]*d[5mC]*dT*d[5mC]*dT*d[5mC]*dT*dG*e[5mC]*eT*eG*eG*eG) [compound 771568] , state whether its % inhibition of SMAD7 mRNA expression is at least 30%.
0 (no)

Given 771753 (antisense eG*eT*e[5mC]*e[5mC]*eA*dT*dG*dA*dA*d[5mC]*d[5mC]*dA*d[5mC]*dA*dA*e[5mC]*eT*e[5mC]*eA*eT) [compound 771753] , state whether its % inhibition of SMAD7 mRNA expression is at least 30%.
1 (yes)
